# TARGET: Retinoic acid receptor RXR-alpha (Homo sapiens)
# RUN_DESCRIPTION: qHTS assay for small molecule agonists of retinoid X receptor alpha signaling (AID 588544);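 note: 0% = DMSO basal wells and 100% = reference agonist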
# PROTOCOL_CONDITIONS: HEK293T RXRa-UAS-bla, beta-lactamase reporter, 18 h; series mostly up to 76.7 µM
Records with an inconclusive call do not appear. Calls of active or inactive are those of the source. Calls come from the whole dose curve.
MEASUREMENT_LABEL: outcome

Answered examples (8):
[
  {
    "COMPOUND": "CCOc1ccccc1N",
    "outcome": "inactive"
  },
  {
    "COMPOUND": "O=C1NC(=O)c2cc([N+](=O)[O-])ccc21",
    "outcome": "inactive"
  },
  {
    "COMPOUND": "CCCCC(CC)CNCC(CC)CCCC (stereo not drawn)",
    "outcome": "inactive"
  },
  {
    "COMPOUND": "O=C(O)/C=C/C(=O)O",
    "outcome": "inactive"
  },
  {
    "COMPOUND": "Cc1ccc(CO)cc1",
    "outcome": "inactive"
  },
  {
    "COMPOUND": "CC(C)(C)OC=O",
    "outcome": "inactive"
  },
  {
    "COMPOUND": "CC1CCC2CC1C2(C)C (stereo not drawn)",
    "outcome": "inactive"
  },
  {
    "COMPOUND": "OC/C(Br)=C(\\Br)CO",
    "outcome": "inactive"
  }
]

Recorded outcome for CCCCCCO , please?
inactive

Dear colleague, I am looking for the recorded outcome of the following compound: O=C(O)c1c(Cl)cccc1Cl
inactive

Could you share which outcome value was measured for CC(C)CCOC(=O)/C=C/c1ccccc1 ?
inactive

What outcome value was documented for this compound, CC(=O)OCCC(C)C ?
inactive

Entry Cc1cc(C)cc(N)c1 : reported outcome = ?
inactive

// returns reported outcome for input O=C1CCC(=O)O1
inactive

---

# RUN_DESCRIPTION: MultiTox-Fluor Cytotoxicity Assay - LYMP1-003 - Dead Cells (AID 961);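 note: cells exposed to compound for 16 h at 37 °C; nearly all actives have a fitted effect of over 70% in size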
# PROTOCOL_CONDITIONS: LYMP1-003 lymphoblastoid cells, dead-cell protease fluorescence; series mostly up to 92.2 µM
Active and inactive are the calls of the source. Calls follow the shape of the dose curve; as a rule, active = well fitted cell-killing curve with a large enough effect; inconclusive = small, poorly fitted or top-dose-only effect, or effect the other way; inactive = flat fitted curve, though single readings scatter.
# output must be one of class 1 for active, class 0 for inactive

Tell me the recorded outcome of this test for c1ccsc1 .
class 0

Tell me the recorded outcome of this test for CCCCN(CCO)CCCC .
class 0

Short answer needed: outcome of this test for CCCC=O ?
class 0

What is the recorded call for this molecule in the test? C=Cc1ccccn1
class 0

Please share the test call associated with CCCCCCO .
class 0

// param item: C=C(C)C(=O)OCC(C)O (configuration not stated) ; yields the recorded call
class 0

Can you look up the reported call for Cc1cccc2cccnc12 for me?
class 0

Please indicate how the test categorized CC(O)COC(C)(C)C (configuration not stated) .
class 0

What outcome does the record of this test show for O=Cc1ccc(C(=O)O)cc1 ?
class 0

Recorded test call requested for Cc1cccc(Br)c1
class 0

What did this assay record as the result for CNC(=O)N(c1ccccc1)c1ccccc1 ?
class 0

Hello, I am checking results. What call was entered for CC(C)CO ?
class 0

So what was the verdict on O=C(O)c1ccc(CO)o1 in this test?
class 0

Hi, sorry to bother you, what did the test record for C=Cc1ccc(C=C)cc1 ?
class 0

Hey, what did the test say about O=Nc1ccc(NO)cc1 ?
class 0

Fill in: this test's call for CC(C)C(C)C is ___
class 0

So what was the verdict on BrC/C=C/CBr in this test?
class 0

Recorded test outcome, item Nc1cccc(S(=O)(=O)O)c1
class 0

Please let me know the test result on file for CCC(C)(C)C(=O)O .
class 0

For CCCCCCCCN , which call appears in the assay record?
class 0

So what was the verdict on CC(=O)Nc1ccccc1C in this test?
class 0

Name the outcome recorded for O=[N+]([O-])c1ccccc1CCO in the assay.
class 0

// outcome(item) with item = FC(F)(F)c1cccc(Cl)c1
class 0

Which outcome did this test record for the molecule Nc1nc(CC(=O)O)cs1 ?
class 0

Dear colleague, could you share the recorded outcome for CCCCC(CC)COCC1CO1 (configuration not stated) when you have a moment?
class 0

Assay outcome for CN(C)CCCCl : what was it?
class 0

// return assay outcome for CCOCCOCC
class 0

Test call for this molecule, please: O=C(Cl)c1ccccc1[N+](=O)[O-]
class 0

Dear all, I need the recorded test outcome for Clc1cc(Cl)cc(Cl)c1 , thank you.
class 0

GET /call?item= CCC(O)C(C)(C)C (configuration not stated) returns the recorded outcome of this test.
class 0

Which outcome was entered for the molecule O=C(O)c1ccc(Cl)c(Cl)c1 in this test?
class 0

// outcome(item) with item = Cc1cc(C)cc(O)c1
class 0

Dear colleague, could you share the recorded outcome for Cc1ccc2oc(=O)ccc2c1 when you have a moment?
class 0

What was the test verdict on NC(=O)NC(N)=O ?
class 0

For CC(C)CCOC(=O)/C=C/c1ccccc1 , what call appears in the results of this test?
class 0

GET /call?item= O=C(O)c1ccc(Cl)cc1Cl returns the recorded outcome of this test.
class 0

Call for entry O=C(O[C@@H](C(=O)O)[C@@H](OC(=O)c1ccccc1)C(=O)O)c1ccccc1 :
class 0

I would be grateful if you could indicate the recorded call for Nc1cccc([N+](=O)[O-])c1 .
class 0

// outcome(item) with item = O=Cc1cccc(Br)c1
class 0

Which outcome was assigned to Cc1ccc(C)c(O)c1 in this test?
class 0

# outcome recorded in this test, key = CCC(C)(C)C
class 0

Called result for CCNS(=O)(=O)c1ccc(C)cc1
class 0

For C=C(C)C(=O)OCCCCCC , which call appears in the assay record?
class 0

Which outcome did this test record for the molecule C1CCCC1 ?
class 0

Answer briefly: the call reported for S=C([S-])NCCNC(=S)[S-].[Zn+2] in this assay.
class 0

Returns: the outcome recorded for CC(C)=CCl in this assay.
class 0

How was CCCOCC(C)O (configuration not stated) classified in this test?
class 0

Given COCCOC(=O)c1ccccc1C(=O)OCCOC , state the outcome it received in this test.
class 0

I'd appreciate the recorded outcome for Cc1ccc2nc(-c3ccc(N)cc3)sc2c1S(=O)(=O)O from this test.
class 0

Lab log entry: Cc1ccc(C)cc1 — outcome as called in the assay?
class 0

Hi, sorry to bother you, what did the test record for Cc1ccco1 ?
class 0

Recorded test call requested for Cc1ccc(C(=O)O)cc1
class 0

How did this test come out for c1ccc(Nc2ccccc2)cc1 ?
class 0

Check the results log: what was the call for CCNc1ccccc1 ?
class 0

Test call for this molecule, please: O=C(O)/C=C/C(=O)O
class 0

Short answer needed: outcome of this test for Nc1cc([N+](=O)[O-])ccc1C(=O)O ?
class 0

What is the recorded call for this molecule in the test? c1ccc2c(c1)ccc1ncccc12
class 0

Name the outcome recorded for OC(CCl)CCl in the assay.
class 0

Hey, what did the test say about CCCCCCCCCCCCOCC1CO1 (configuration not stated) ?
class 0

Entry Cc1cscn1 : call = ?
class 0

What was the test verdict on CC(=O)Nc1ccc(C)cc1 ?
class 0

Which outcome was assigned to O=C(O)c1cccc([N+](=O)[O-])c1 in this test?
class 0

Each molecule tested received a call. Report the one for CC#N .
class 0

Check the results log: what was the call for NC(=S)NNC(N)=S ?
class 0

For CN(C)CCCNCCCN , which call appears in the assay record?
class 0

Kindly provide the recorded test outcome for the following molecule: Clc1ccc(Cl)c(Cl)c1Cl
class 0

For this molecule, state the assay outcome: CC(=O)Nc1cccc(N)c1
class 0

Per the assay record, what outcome was assigned to CC/C(C)=N/O ?
class 0

Could you kindly confirm the outcome this assay logged for O=C(O)CNC(=O)c1ccc(CO)o1 ?
class 0

Each molecule tested received a call. Report the one for CC(C)=C1CCC(C)CC1=O (configuration not stated) .
class 0

Assay outcome for FB(F)F : what was it?
class 0

Short answer needed: outcome of this test for CC1=C(/C=C/C(C)=C/C=C/C(C)=C\C=O)C(C)(C)CCC1 ?
class 1

The measurements presented in this section are drawn from PubChem BioAssay (NCATS).
